tested on: DU-145 prostate; assay: NCI tumour cell line growth inhibition, 48 h
MEASUREMENT TYPE: GI50

Dear colleague, I am looking for the recorded GI50 of the following compound: CCOc1ccc(-c2nonc2NC(=O)c2cccc(C)c2)cc1OCC > 100 µM

Dear colleague, I am looking for the recorded GI50 of the following compound: Nc1c(Br)cc(Br)c2c1[nH]c(=O)c1ccccc12 23.6 µM

Dear colleague, I am looking for the recorded GI50 of the following compound: COc1ccc(-n2nnnc2-c2c[nH]c3c(F)cc(F)cc23)cc1 > 100 µM

Dear colleague, I am looking for the recorded GI50 of the following compound: CCC/C(=N/N=C(N)N)c1ccc(NC(=O)c2cc3cc(OC)ccc3[nH]2)cc1 3.57 µM
